Measured values drawn from ChEMBL document CHEMBL4888484 for this set.

- Test system: Plasmodium falciparum
- protocol summary: Primary screen in NF54 nanoGlo assay, in single point, at 2uM, 72h
- Assay type: functional, Erythrocyte
- measurement parameters: timepoint 72 hour
The campaign covered roughly 150,000 compounds. About 540 (0.36%) showed an effect of 50% or more. For the sample, strong results were picked, then their nearest neighbours and some compounds at random.
Answer N if % Inhibition is under -10%, and Y if it is -10% or more.

Here's what some known entries look like.
compound=C[C@H]1CCC[C@@H](NCCc2ccccc2)CCC/C=C/c2cc(O)cc(O)c2C(=O)O1 assigned_label=Y
compound=COc1ccc(-c2c[n+](-c3ccc(Cl)cc3)c3n2CCCCC3)cc1 assigned_label=Y
compound="CC(C)=CC1C(C(=O)N(C)CC2COc3ccccc3O2)C1(C)C (stereo unspecified)" assigned_label=Y
compound=O=C(NCCc1ccccc1)NC1CCCC1 assigned_label=N
compound=COc1ccc(F)cc1S(=O)(=O)N1CC2(C[C@H](CC(=O)NCC3CC3)CO2)C1 assigned_label=Y

QUERY: hey, is % Inhibition for this one >= -10%? CC(C)CNC(=O)c1[nH]cnc1C(=O)N1CCC(Cc2ccccc2)CC1
RESULT: Y

QUERY: hey, is % Inhibition for this one >= -10%? CCC1CN(C(=O)NCc2cc(OC)no2)CC(C)O1 (stereo unspecified)
RESULT: N

QUERY: hey, is % Inhibition for this one >= -10%? Cc1cc(C)n(Cc2c(C(=O)NCc3ccc(N(C)C)cc3)noc2C)n1
RESULT: N

QUERY: hey, is % Inhibition for this one >= -10%? COc1ccc(Nc2nnc(-c3ccc(NC(=O)C(=O)NCCCn4ccnc4)cc3)s2)cc1
RESULT: Y

QUERY: hey, is % Inhibition for this one >= -10%? COc1ccc(-c2cnc3n2CCCC3)cc1
RESULT: N

QUERY: hey, is % Inhibition for this one >= -10%? CCc1cc(C(=O)N2CCN(C/C=C/c3ccccc3)CC2)cc(=O)[nH]1
RESULT: Y

====

- System: Plasmodium falciparum
- protocol summary: Primary screen in NF54 nanoGlo assay, in single point, at 2uM, 72h
- Format: functional, Erythrocyte
- measurement parameters: timepoint 72 hour
The whole screen tested about 150,000 compounds, of which about 540 (0.36%) showed an effect of 50% or more. This is one part of a sample in which strong results are shown more often than they occur.
% Inhibition values for the molecules below.
State the answer as a number, implicitly in %.

Sample answers from the record:
molecule=CC(C)(C)[C@H]1CCc2c(sc(NC(=O)CN3CCCC3)c2C#N)C1 test_target="Plasmodium falciparum" test_result=10
molecule=CN1CCN(C2(CNC(=O)Nc3ccccc3C(F)(F)F)CCCC2)CC1 test_target="Plasmodium falciparum" test_result=-2
molecule=Cc1ccsc1-c1nccn1CCNC(=O)c1ccc(F)cc1 test_target="Plasmodium falciparum" test_result=-3
molecule=Cc1ncsc1CCNC(=O)[C@H]1CCN(c2ccc(C(F)(F)F)cn2)C1 test_target="Plasmodium falciparum" test_result=-4
molecule=c1ccc(COC[C@H](Nc2ncnc3ccccc23)c2ccccc2)cc1 test_target="Plasmodium falciparum" test_result=-12

Sample CCn1nc(C)cc1C(=O)N[C@H]1CC2(CCCCC2)Oc2ccccc21 ; % Inhibition observed: -13

Sample CC(=O)Nc1ccc(S(=O)(=O)NC2(c3nc(C)no3)CCCCC2)cc1 ; % Inhibition observed: -3

Sample COc1ccc(CCNC(=O)N2CC=C(C(F)(F)F)CC2)cc1F ; % Inhibition observed: 6

Sample COc1ccc(CC(=O)N2CC3(C[C@H](N4CCN(C)CC4)CO3)C2)cc1 ; % Inhibition observed: -7

Sample Cc1cc(C)c(C(=O)N2C[C@H](F)C[C@H]2C(N)=O)o1 ; % Inhibition observed: 1

Sample CN1CCC(N(C)CC(NCC2CCC=CO2)c2ccccc2)CC1 (stereo unspecified) ; % Inhibition observed: -4
